Biological target: Recombinant human GCPII (Homo sapiens, UniProt Q04609)
Construct: made in house
Sequence (Q04609 whole entry): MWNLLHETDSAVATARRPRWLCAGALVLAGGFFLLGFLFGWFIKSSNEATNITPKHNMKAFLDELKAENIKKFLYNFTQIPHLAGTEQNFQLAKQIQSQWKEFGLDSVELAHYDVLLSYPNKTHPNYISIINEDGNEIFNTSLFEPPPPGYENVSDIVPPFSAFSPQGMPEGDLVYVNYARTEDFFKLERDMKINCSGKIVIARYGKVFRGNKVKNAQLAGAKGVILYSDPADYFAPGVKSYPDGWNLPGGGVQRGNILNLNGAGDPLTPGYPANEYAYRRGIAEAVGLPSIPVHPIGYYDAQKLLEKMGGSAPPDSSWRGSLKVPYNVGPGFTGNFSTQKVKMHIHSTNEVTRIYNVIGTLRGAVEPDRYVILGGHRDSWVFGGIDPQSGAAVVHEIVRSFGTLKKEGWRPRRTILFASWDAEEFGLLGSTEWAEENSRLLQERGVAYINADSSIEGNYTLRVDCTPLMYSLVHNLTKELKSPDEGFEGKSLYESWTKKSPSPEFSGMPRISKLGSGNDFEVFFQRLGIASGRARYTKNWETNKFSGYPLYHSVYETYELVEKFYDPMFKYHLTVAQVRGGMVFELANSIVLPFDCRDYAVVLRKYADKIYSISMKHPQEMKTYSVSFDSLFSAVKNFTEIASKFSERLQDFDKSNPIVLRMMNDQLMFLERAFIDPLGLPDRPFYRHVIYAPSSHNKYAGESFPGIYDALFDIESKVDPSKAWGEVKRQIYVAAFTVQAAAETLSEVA
Experiment: GCPII IC50 with substrate concentration 10x above KM (mode of inhibition)
Format: biochemical
Settings: substrate concentration 10 times above KM (1 μM); read-out: GCPII IC50 10x > KM
property name: IC50 (µM)

1) O=C(O)CSC1=C(SCC(=O)O)C(=O)C(SCC(=O)O)=C(SCC(=O)O)C1=O :: 9.39

[I] O=[N+]([O-])c1ccc(C(CCc2nnn[nH]2)(CCc2nnn[nH]2)c2nnn[nH]2)cc1
[II] O=C(O)c1ccccc1-c1c2ccc(=O)c(I)c-2oc2c(I)c(OS(=O)(=O)c3ccc(Br)cc3)ccc12
INPUT: Between the two listed entries I and II , which has its IC50 at the higher number? Pick one and reply with its label.
OUTPUT: I
(I: 27.6 µM, II: 1.35 µM)

---

Molecular target: Recombinant human GCPII (Homo sapiens, UniProt Q04609)
Construct: made in house
Assay: In vitro GCPII inhibition assay, fluorescence-based, RP-HPLC readout (screening at 20 μM and IC50)
Format: biochemical
Details: compound at 20 μM; 100 nM fluorescein-labeled Glu-Glu dipeptide substrate; read-out: Inhibition [%] of GCPII activity
property name: inhibition at 20 µM (%)

Answered cases to consult:
1. O=C(O)CCCC(=O)Nc1ccc(C(=O)O)cc1 [Compound 10] :: 0
2. O=C(O)c1ccccc1CN[C@@H](Cc1c[nH]c2ccccc12)C(=O)O [Compound 14] :: 0
3. COc1ccc([S@TB4](=O)(=O)Oc2ccc(C(=O)O)cc2)cc1 [Compound 42] :: 1
4. O=C(O)c1cccc(NC(=O)[C@H]2CC=CC[C@H]2C(=O)O)c1 [Compound 11] :: 0

[P] O=C(O)CCN(CCC(=O)O)c1ccccc1O [Compound 7]
[Q] O=C(O)CN[S@TB17](=O)(=O)c1ccc(C(=O)O)cc1 [Compound 19]
INPUT: // pick min by inhibition at 20 µM: P , Q // return label of chosen record
OUTPUT: Q

[1] O=C(/C=C/c1ccccc1)Oc1cc([S@TB3](=O)(=O)O)cc2cc([S@TB3](=O)(=O)O)ccc12 [Compound 48]
[2] O=C(O)c1ccccc1NC(=O)[C@@H](O)[C@H](O)C(=O)O [Compound 34]
INPUT: Which record would sort first by descending inhibition at 20 µM, 1 or 2 ? Lab log: write the label of the selected item as the result.
OUTPUT: 1
(1: 16%, 2: 2%)

---

Molecular target: Recombinant human GCPII (Homo sapiens, UniProt Q04609)
Construct: made in house
Assay: In vitro GCPII inhibition assay, fluorescence-based, RP-HPLC readout (screening at 20 μM and IC50)
Assay type: biochemical
Details: compound at 20 μM; 100 nM fluorescein-labeled Glu-Glu dipeptide substrate; read-out: Inhibition [%] of GCPII activity
property name: inhibition at 20 µM (%)

Some compounds with recorded inhibition at 20 µM:
1. N#Cc1c(NC(=O)c2ccc(C(=O)O)cc2C(=O)O)sc2c1CCCC2 [Compound 15] :: 13
2. O=C(O)CSc1ncccc1C(=O)O [Compound 23] :: 11
3. O=C(O)Cn1c(COCc2nc3ccccc3n2CC(=O)O)nc2ccccc21 [Compound 20] :: 8

[a] O=C(O)CNc1ccc(C(=O)O)cc1 [Compound 33]
[b] Cc1sc(NC(=O)CC(C)(C)CC(=O)Nc2sc(C)c(C)c2C(=O)O)c(C(=O)O)c1C [Compound 3]
[c] CC(C)(CC(=O)Nc1scc(-c2ccccc2)c1C(=O)O)CC(=O)Nc1scc(-c2ccccc2)c1C(=O)O [Compound 26]
[d] O=C(O)CSc1nc2ccccc2n1CC(=O)O [Compound 21]
INPUT: Sort the 4 compounds by inhibition at 20 µM; largest first, smallest last. Answer by writing out the labels in the requested order.
OUTPUT: c, b, d, a
(c: 18%, b: 11%, d: 1%, a: 0%)

[I] CCCCc1nc(Cl)c(C(=O)O)n1Cc1ccc(-c2ccccc2-c2nnn[nH]2)s1 [Compound 49]
[II] O=C(O)CN1CCC(C(=O)O)CC1 [Compound 25]
[III] O=C(O)c1ccc(C(=O)NCc2ccccc2)c(C(=O)O)c1 [Compound 37]
[IV] Cc1sc(NC(=O)c2cc(C(=O)O)ccc2C(=O)O)c(C#N)c1C [Compound 6]
[V] O=C(O)c1ccc(CNCc2ccccc2C(=O)O)cc1 [Compound 31]
INPUT: Arrange items by their inhibition at 20 µM values in increasing order. Use the labels to give the ranking in the order requested.
OUTPUT: II, III, IV, V, I
